Biological target: Vascular endothelial growth factor receptor 2 (Homo sapiens, UniProt P35968)
Sequence (P35968 whole entry): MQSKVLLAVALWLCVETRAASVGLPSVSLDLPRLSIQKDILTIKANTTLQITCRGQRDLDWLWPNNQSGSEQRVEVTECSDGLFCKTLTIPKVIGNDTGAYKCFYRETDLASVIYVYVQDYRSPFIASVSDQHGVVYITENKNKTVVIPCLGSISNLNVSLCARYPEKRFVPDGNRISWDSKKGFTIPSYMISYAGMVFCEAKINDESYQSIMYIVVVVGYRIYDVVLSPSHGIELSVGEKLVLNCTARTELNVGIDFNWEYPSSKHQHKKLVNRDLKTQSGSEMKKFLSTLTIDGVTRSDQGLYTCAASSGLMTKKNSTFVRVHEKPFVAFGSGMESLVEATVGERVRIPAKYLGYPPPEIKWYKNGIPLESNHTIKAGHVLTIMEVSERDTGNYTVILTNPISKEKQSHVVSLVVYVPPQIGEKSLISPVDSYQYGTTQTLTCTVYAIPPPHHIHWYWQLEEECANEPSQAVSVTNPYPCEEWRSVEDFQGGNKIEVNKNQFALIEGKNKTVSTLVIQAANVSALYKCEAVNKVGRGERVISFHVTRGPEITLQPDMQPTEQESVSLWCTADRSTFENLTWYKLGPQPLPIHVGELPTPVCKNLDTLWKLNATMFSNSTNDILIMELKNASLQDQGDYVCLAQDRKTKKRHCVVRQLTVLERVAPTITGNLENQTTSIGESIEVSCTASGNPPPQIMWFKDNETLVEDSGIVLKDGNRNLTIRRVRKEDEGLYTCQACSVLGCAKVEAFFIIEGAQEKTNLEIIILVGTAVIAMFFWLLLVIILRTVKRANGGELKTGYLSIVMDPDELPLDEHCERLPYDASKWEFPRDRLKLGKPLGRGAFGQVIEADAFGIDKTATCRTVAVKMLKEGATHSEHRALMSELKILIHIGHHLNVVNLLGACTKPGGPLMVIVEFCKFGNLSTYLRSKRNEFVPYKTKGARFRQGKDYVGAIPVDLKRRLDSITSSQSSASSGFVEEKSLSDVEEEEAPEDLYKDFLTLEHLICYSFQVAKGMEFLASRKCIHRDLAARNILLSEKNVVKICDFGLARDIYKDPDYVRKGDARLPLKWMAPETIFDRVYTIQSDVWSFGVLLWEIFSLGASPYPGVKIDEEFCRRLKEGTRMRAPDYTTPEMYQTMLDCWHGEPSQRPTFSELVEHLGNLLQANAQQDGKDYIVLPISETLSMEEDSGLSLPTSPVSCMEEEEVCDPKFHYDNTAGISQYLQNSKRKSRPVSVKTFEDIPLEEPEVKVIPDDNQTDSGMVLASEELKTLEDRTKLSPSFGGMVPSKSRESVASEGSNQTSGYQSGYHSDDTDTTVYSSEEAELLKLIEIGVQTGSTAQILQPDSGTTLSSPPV
Assay: Inhibition of VEGFR2 expressed HEK293 cells
Format: cell-based
pIC50: −log10 of the molar value.
observed_property: pIC50

Here is how some compounds turned out for pIC50.
>  <compound>
c1cnc(NCc2ccc3c(c2)OCO3)c(-c2nnc(Nc3ccc4c(c3)OCCO4)o2)c1

>  <pIC50>
< 5.00

$$$$
>  <compound>
c1ccc(CNc2ncccc2-c2nnc(Nc3ccc4c(c3)OCO4)o2)nc1

>  <pIC50>
< 5.00

$$$$
>  <compound>
c1cnc(NCc2ccncc2)c(-c2nnc(Nc3ccc4c(c3)OCO4)o2)c1

>  <pIC50>
< 5.00

$$$$
>  <compound>
c1cnc(NCCc2ccncc2)c(-c2nnc(Nc3ccc4c(c3)OCCO4)o2)c1

>  <pIC50>
< 5.00

$$$$
>  <compound>
c1ccc(-c2nnc(Nc3ccc4c(c3)OCCO4)[nH]2)c(NCc2ccncc2)c1

>  <pIC50>
< 5.00

$$$$

Name the reported pIC50 value associated with the compound c1cnc(NCc2cnc[nH]2)c(-c2nnc(Nc3ccc4c(c3)OCCO4)o2)c1
6.08

Name the reported pIC50 value associated with the compound c1cnc(NCc2ccc3ncccc3c2)c(-c2nnc(Nc3ccc4c(c3)OCCO4)o2)c1
6.66

Name the reported pIC50 value associated with the compound c1cnc(NCc2ccncc2)c(-c2nnc(Nc3ccc4c(c3)OCCO4)o2)c1
6.00

Name the reported pIC50 value associated with the compound c1ccc(-c2nnc(Nc3ccc4c(c3)OCCO4)[nH]2)c(NCc2ccc3ncccc3c2)c1
< 5.00

Name the reported pIC50 value associated with the compound c1ccc(CNc2ncccc2-c2nnc(Nc3ccc4c(c3)OCCO4)o2)nc1
< 5.00

Name the reported pIC50 value associated with the compound c1cncc(CCNc2ncccc2-c2nnc(Nc3ccc4c(c3)OCO4)o2)c1
< 5.00

Name the reported pIC50 value associated with the compound c1ccc(-c2nnc(Nc3ccc4c(c3)OCO4)o2)c(NCc2ccncc2)c1
< 5.00

Name the reported pIC50 value associated with the compound c1ccc(-c2nnc(Nc3ccc4c(c3)OCCO4)[nH]2)c(NCc2cnc[nH]2)c1
< 5.00

Name the reported pIC50 value associated with the compound c1cncc(CNc2ncccc2-c2nnc(Nc3ccc4c(c3)OCO4)o2)c1
< 5.00

Name the reported pIC50 value associated with the compound CS(=O)(=O)c1ccc(-c2nnc(-c3cccnc3NCC3COCCO3)[nH]2)cc1 (stereo not given)
< 5.00

Name the reported pIC50 value associated with the compound c1cnc(NCc2ccc3c(c2)OCO3)c(-c2nnc(Nc3ccc4c(c3)OCO4)o2)c1
< 5.00

Name the reported pIC50 value associated with the compound FC(F)(F)c1cccc(-c2nnc(-c3cccnc3NCc3ccncc3)o2)c1
< 5.00

Name the reported pIC50 value associated with the compound FC(F)(F)c1cccc(-c2nnc(-c3cccnc3NCc3ccncc3)[nH]2)c1
6.00

Name the reported pIC50 value associated with the compound c1ccc(-c2nnc(Nc3ccc4c(c3)OCCO4)o2)c(NCc2ccncc2)c1
6.96

Name the reported pIC50 value associated with the compound c1cnc(NCc2ccc3[nH]ncc3c2)c(-c2nnc(Nc3ccc4c(c3)OCCO4)o2)c1
< 5.00
